assayed.system: S. pasteurii urease (Sporosarcina pasteurii, UniProt P41020)
Construct: The native urease, purified from S. pasteurii CCM 2056
Sequence (P41020 whole entry): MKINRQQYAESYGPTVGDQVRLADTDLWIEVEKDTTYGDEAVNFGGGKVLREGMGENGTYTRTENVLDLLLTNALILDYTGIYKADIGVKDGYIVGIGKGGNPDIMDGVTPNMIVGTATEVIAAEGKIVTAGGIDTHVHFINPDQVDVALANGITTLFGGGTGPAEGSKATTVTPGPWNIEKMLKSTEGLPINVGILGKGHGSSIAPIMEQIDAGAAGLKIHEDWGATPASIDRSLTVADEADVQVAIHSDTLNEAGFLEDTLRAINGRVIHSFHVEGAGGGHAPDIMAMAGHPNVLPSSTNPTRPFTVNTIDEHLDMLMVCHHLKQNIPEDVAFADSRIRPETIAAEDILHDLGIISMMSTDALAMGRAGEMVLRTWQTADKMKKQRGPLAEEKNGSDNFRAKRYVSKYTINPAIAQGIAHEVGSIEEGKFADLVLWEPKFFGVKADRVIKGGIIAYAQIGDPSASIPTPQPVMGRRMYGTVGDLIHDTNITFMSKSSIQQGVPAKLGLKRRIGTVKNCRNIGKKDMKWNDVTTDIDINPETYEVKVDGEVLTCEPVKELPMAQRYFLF
Sequence (P41022 whole entry, further chain): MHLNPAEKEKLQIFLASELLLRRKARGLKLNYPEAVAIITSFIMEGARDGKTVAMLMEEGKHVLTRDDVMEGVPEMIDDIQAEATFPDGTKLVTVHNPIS
Sequence (P41021 whole entry, further chain): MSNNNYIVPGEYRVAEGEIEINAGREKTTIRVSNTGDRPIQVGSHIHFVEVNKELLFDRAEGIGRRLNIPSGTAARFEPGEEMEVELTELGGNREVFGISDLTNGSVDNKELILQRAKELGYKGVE
assay.info: Purified S. pasteurii urease inhibition, cresol red assay, no preincubation
assay.conditions: native purified urease, slow-binding, read-out: K i, S. pasteurii urease
pKi: −log10 of the molar value.
reported.property: pKi

1. O=c1c2ccccc2[se]n1Cc1ccc(F)c(F)c1 | 8.47
2. O=c1c2ccccc2[se]n1Cc1ccc(C(F)(F)F)c(F)c1 | 7.80
3. O=c1c2ccccc2[se]n1Cc1ccc(C(F)(F)F)cc1 | 8.68
4. O=c1c2ccccc2[se]n1Cc1ccc(Cl)c(Cl)c1 | 7.80
5. O=c1c2ccccc2[se]n1Cc1cc(F)cc(F)c1 | 8.89
6. O=c1c2ccccc2[se]n1Cc1cccc(F)c1 | 7.91
7. O=c1c2ccccc2[se]n1Cc1cc(F)ccc1Cl | 9.27

----------
pIC50 values by entry
Test system: H. pylori Tx30a (ATCC 51932) live cells
assay.info: Whole cell ureolysis assay, cresol red
Type: cell-based, Helicobacter pylori
assay.conditions: Helicobacter pylori, ATCC51932, read-out: IC50, H. pylori whole-cell ureolysis, live cells of H. pylori Tx30a
pIC50: −log10 of the molar value.
reported.property: pIC50

1) O=c1c2ccccc2[se]n1Cc1ccc(F)c(F)c1F [4r] | 6.75
2) O=c1c2ccccc2[se]n1Cc1ccc(F)c(C(F)(F)F)c1 [4o] | 6.97
3) O=c1c2ccccc2[se]n1Cc1cc(F)cc(F)c1 [4p] | 6.91
4) O=c1c2ccccc2[se]n1Cc1cccc(F)c1 [4b] | 6.81
5) O=c1c2ccccc2[se]n1Cc1cccc(C(F)(F)F)c1 [4c] | 6.95
6) O=c1c2ccccc2[se]n1Cc1ccc(F)c(F)c1 [4l] | 6.96
7) O=c1c2ccccc2[se]n1Cc1ccccc1F [4a] | 6.77
8) O=c1c2ccccc2[se]n1-c1ccccc1 [compound 1, N-phenyl-1,2-benzisoselenazol-3(2H)-one] | 6.13
9) O=c1c2ccccc2[se]n1Cc1cc(Cl)ccc1Cl [4h] | 6.47
10) O=c1c2ccccc2[se]n1Cc1ccc(Cl)cc1Cl [4f] | 6.46
11) O=c1c2ccccc2[se]n1Cc1cc(C(F)(F)F)cc(C(F)(F)F)c1 [4q] | 6.68
12) O=c1c2ccccc2[se]n1Cc1ccc(F)cc1 [4d] | 6.71
13) O=c1c2ccccc2[se]n1Cc1ccc(F)cc1F [4g] | 6.54
14) O=c1c2ccccc2[se]n1Cc1ccc(C(F)(F)F)cc1 [4e] | 6.77
15) O=c1c2ccccc2[se]n1Cc1c(F)cccc1F [4j] | 6.66
16) O=c1c2ccccc2[se]n1Cc1ccc(Cl)c(Cl)c1 [4k] | 6.50
17) O=c1c2ccccc2[se]n1Cc1ccc(Cl)c(C(F)(F)F)c1 [4n] | 6.82
